Provide the reported MIC Staphylococcus aureus (GC 1131) of each item.
# Tested on: Staphylococcus sp.
# assay method text: in vitro antibacterial evaluation, MIC by broth dilution
# Type: cell-based
# measurement setup: broth dilution, 18 hours at 35° C.
Numbers only, in µg/mL.

# example entries with known answers
compound | MIC Staphylococcus aureus (GC 1131), µg/mL
COc1ccc2cc(COCC3OC(OC4C(CO)OC(Oc5ccc(CC6NC(=O)C(C(C)c7ccccc7)NC(=O)CNC(=O)C(CO)NC(=O)C(CC7CNC(=N)N7C7OC(CO)C(O)C(O)C7O)NC(=O)C(CC7CNC(=N)N7)NC6=O)cc5)C(O)C4O)C(O)C(O)C3O)ccc2c1 (stereo not shown) | 8
CC(C)CC1OCC2OC(OC3C(CO)OC(Oc4ccc(CC5NC(=O)C(C(C)c6ccccc6)NC(=O)CNC(=O)C(CO)NC(=O)C(C(O)C6CNC(=N)N6C6OC(CO)C(O)C(O)C6O)NC(=O)C(C(O)C6CNC(=N)N6)NC5=O)cc4)C(O)C3O)C(O)C(O)C2O1 (stereo not shown) | 2

Let us examine a further case.
Determine from records and report MIC Staphylococcus aureus (GC 1131) for CC(c1ccccc1)C1NC(=O)CNC(=O)C(CO)NC(=O)C(C(O)C2CNC(=N)N2C2OC(CO)C(O)C(O)C2O)NC(=O)C(C(O)C2CNC(=N)N2)NC(=O)C(Cc2ccc(OC3OC(CO)C(OC4OC5COC(CC6CCN(C(=O)OCc7ccccc7)CC6)OC5C(O)C4O)C(O)C3O)cc2)NC1=O (stereo not shown)
2

---

# System: Staphylococcus sp.
# assay method text: in vitro antibacterial evaluation, MIC by broth dilution
# Assay type: cell-based
# measurement setup: broth dilution, 18 hours at 35° C.; strain GC 4551
Provide the reported MIC Coagulase Negative Staphylococcus (GC 4551) of each item.
Numbers only, in µg/mL.

compound | tgt | experimental value
CC(c1ccccc1)C1NC(=O)CNC(=O)C(CO)NC(=O)C(C(O)C2CN(c3ncccn3)C(=N)N2C2OC(CO)C(O)C(O)C2O)NC(=O)C(C(O)C2CNC(=Nc3ncccn3)N2)NC(=O)C(Cc2ccc(OC3OC(CO)C(OC4OC5COC6(OC5C(O)C4O)C4CC5CC(C4)CC6C5)C(O)C3O)cc2)NC1=O (centres unmarked) | Staphylococcus sp. | 16
CC(c1ccccc1)C1NC(=O)CNC(=O)C(CO)NC(=O)C(C(O)C2CNC(=N)N2C2OC(CO)C(O)C(O)C2O)NC(=O)C(C(O)C2CNC(=N)N2)NC(=O)C(Cc2ccc(OC3OC(COC(=O)C(c4ccccc4)c4ccccc4)C(OC4OC(CO)C(O)C(O)C4O)C(O)C3O)cc2)NC1=O (centres unmarked) [Example 96b] | Staphylococcus sp. | 2

Consider the following items and state reported MIC Coagulase Negative Staphylococcus (GC 4551) for each.
1. CC(C)CC(=O)OC1C(OC2C(CO)OC(Oc3ccc(CC4NC(=O)C(C(C)c5cccs5)NC(=O)CNC(=O)C(CO)NC(=O)C(C(O)C5CNC(=N)N5C5OC(CO)C(O)C(O)C5O)NC(=O)C(C(O)C5CNC(=N)N5)NC4=O)cc3)C(O)C2O)OC(CO)C(O)C1O (centres unmarked) [Example 265a]
2. CC(c1ccccc1)C1NC(=O)CNC(=O)C(CO)NC(=O)C(C(O)C2CNC(=N)N2C2OC(CO)C(O)C(O)C2O)NC(=O)C(C(O)C2CNC(=N)N2)NC(=O)C(Cc2ccc(OC3OC(CO)C(OC4OC5COC(c6ccsc6)OC5C(O)C4O)C(O)C3O)cc2)NC1=O (centres unmarked)

1: 8; 2: 1

Consider the following items and state reported MIC Coagulase Negative Staphylococcus (GC 4551) for each.
1. CCCC(CCC)C(=O)OCC1OC(Oc2ccc(CC3NC(=O)C(C(C)c4ccccc4)NC(=O)CNC(=O)C(CO)NC(=O)C(C(O)C4CNC(=N)N4C4OC(CO)C(O)C(O)C4O)NC(=O)C(C(O)C4CNC(=N)N4)NC3=O)cc2)C(O)C(O)C1OC1OC(CO)C(O)C(O)C1O (centres unmarked) [Example 99b]
2. CC(c1ccccc1)C1NC(=O)CNC(=O)C(CO)NC(=O)C(CC2CNC(=N)N2C2OC(CO)C(O)C(O)C2O)NC(=O)C(CC2CNC(=N)N2)NC(=O)C(Cc2ccc(OC3OC(CO)C(OC4OC(CO)C(OCc5ccc(OCc6ccccc6)cc5)C(O)C4O)C(O)C3O)cc2)NC1=O (centres unmarked) [Example 246a]
3. CC(c1ccccc1)C1NC(=O)CNC(=O)C(CO)NC(=O)C(C(O)C2CNC(=N)N2C2OC(CO)C(O)C(O)C2O)NC(=O)C(C(O)C2CNC(=N)N2)NC(=O)C(Cc2ccc(OC3OC(CO)C(OC4OC5COC(c6cccc(-c7ccccc7)c6)OC5C(O)C4O)C(O)C3O)cc2)NC1=O (centres unmarked)
4. CC(c1ccccc1)C1NC(=O)CNC(=O)C(CO)NC(=O)C(C(O)C2CNC(=N)N2C2OC(CO)C(O)C(O)C2O)NC(=O)C(C(O)C2CNC(=N)N2)NC(=O)C(Cc2ccc(OC3OC(CO)C(OC4OC5COC(c6cccc(Oc7ccccc7)c6)OC5C(O)C4O)C(O)C3O)cc2)NC1=O (centres unmarked)
5. CC(C)CC1OCC2OC(OC3C(CO)OC(Oc4ccc(CC5NC(=O)C(C(C)c6ccccc6)NC(=O)CNC(=O)C(CO)NC(=O)C(C(O)C6CNC(=N)N6C6OC(CO)C(O)C(O)C6O)NC(=O)C(C(O)C6CNC(=N)N6)NC5=O)cc4)C(O)C3O)C(O)C(O)C2O1 (centres unmarked)

1. 8
2. 2
3. 2
4. 1
5. 1
